Molecular target: Vitamin K epoxide reductase complex subunit 1 (Rattus norvegicus, UniProt Q6TEK4)
Sequence (Q6TEK4 whole entry): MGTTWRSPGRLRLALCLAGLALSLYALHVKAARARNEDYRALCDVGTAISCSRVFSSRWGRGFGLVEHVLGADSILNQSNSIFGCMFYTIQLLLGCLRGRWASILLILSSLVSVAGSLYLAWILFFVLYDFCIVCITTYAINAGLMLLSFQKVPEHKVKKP
Test: VKOR Activity Assay
Conditions: pH 7.4; 37 °C
Description: Briefly, standard reactions were performed in 200 mM Hepes buffer, pH 7.4, containing 150 mM KCl, 1 mM dithiothreitol, 0.25 to 2 g liter-1 of total proteins containing membrane VKORC1. The reaction was started by the addition of vit K1>O solution in 1% Triton X-100 and incubated at 37 °C for 30 min. […] The dry residue was immediately dissolved in 0.2 ml of isopropyl alcohol, and the reaction product was analyzed by liquid chromatography-mass spectrometry.
pKi: −log10 of the molar value.
assay.readout: pKi

molecule.smiles	test.value
CC(=O)C[C@H](c1ccccc1)c1c(O)c2ccccc2oc1=O	6.22
